Where these numbers come from: paper PMC8380238

- ASSAYED TARGET: human recombinant CYP1A1 (rCYP1A1) (Homo sapiens)
- Sequence (P04798 whole entry): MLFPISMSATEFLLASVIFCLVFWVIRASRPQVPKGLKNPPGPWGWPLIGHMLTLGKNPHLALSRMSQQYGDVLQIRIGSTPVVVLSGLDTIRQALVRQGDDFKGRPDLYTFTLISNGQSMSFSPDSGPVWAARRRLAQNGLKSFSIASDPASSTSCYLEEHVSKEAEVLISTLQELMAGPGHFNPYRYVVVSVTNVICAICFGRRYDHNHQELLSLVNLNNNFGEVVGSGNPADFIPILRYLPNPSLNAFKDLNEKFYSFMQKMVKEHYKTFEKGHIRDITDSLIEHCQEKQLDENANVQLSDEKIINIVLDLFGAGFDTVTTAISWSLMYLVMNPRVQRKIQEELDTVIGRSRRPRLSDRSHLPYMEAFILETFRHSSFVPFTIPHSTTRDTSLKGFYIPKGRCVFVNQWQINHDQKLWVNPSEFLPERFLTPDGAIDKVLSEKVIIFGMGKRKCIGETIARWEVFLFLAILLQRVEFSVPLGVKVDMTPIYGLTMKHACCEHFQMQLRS
QUANTITY MEASURED: MOI (mode of inhibition)

// below: answered compounds
CC(C)(c1ccc(O)cc1)c1ccc(O)cc1; Competitive
CCCOC(=O)c1ccc(O)cc1; Competitive
CCOC(=O)c1ccccc1C(=O)OCC [Diethyl phthalate]; Competitive
C[C@]12CC[C@@H]3c4ccc(O)cc4CC[C@H]3[C@@H]1CC[C@@H]2O [Estradiol, reference compound]; Competitive
CC(=O)[C@H]1CC[C@H]2[C@@H]3CCC4=CC(=O)CC[C@]4(C)[C@H]3CC[C@]12C [Progesterone, reference compound]; Competitive
CC(O)(CS(=O)(=O)c1ccc(F)cc1)C(=O)Nc1ccc(C#N)c(C(F)(F)F)c1 (centres unmarked) [Bicalutamide, reference compound]; Mixed

The record that follows has no MOI (mode of inhibition) shown yet.
Form field MOI (mode of inhibition) for item C=CC(=C)CCC=C(C)C on human recombinant CYP1A1 (rCYP1A1) (Homo sapiens): Mixed

* * *

- ASSAYED TARGET: human recombinant CYP1A1 (rCYP1A1) (Homo sapiens)
- ASSAY DETAILS: CYP1A1 activity assay repeated at six CEC concentrations (Ki, α, mode of inhibition)
- MEASUREMENT CONDITIONS: Ki
Here the recorded pKi is given for each entry.
Field pKi (float): negative decimal logarithm of the concentration in molar.

CC(O)(CS(=O)(=O)c1ccc(F)cc1)C(=O)Nc1ccc(C#N)c(C(F)(F)F)c1 (stereo not shown) [Bicalutamide, reference compound]; 5.18
CC(=O)[C@H]1CC[C@H]2[C@@H]3CCC4=CC(=O)CC[C@]4(C)[C@H]3CC[C@]12C [Progesterone, reference compound]; 4.70
CCCOC(=O)c1ccc(O)cc1 [Propyl paraben]; 4.77

Form field pKi for item C[C@]12CC[C@@H]3c4ccc(O)cc4CC[C@H]3[C@@H]1CC[C@@H]2O [Estradiol, reference compound] on human recombinant CYP1A1 (rCYP1A1) (Homo sapiens): 4.89

Form field pKi for item CCOC(=O)c1ccccc1C(=O)OCC [Diethyl phthalate] on human recombinant CYP1A1 (rCYP1A1) (Homo sapiens): 5.00

Form field pKi for item CCCCOC(=O)c1ccccc1C(=O)OCCCC [Dibutyl phthalate] on human recombinant CYP1A1 (rCYP1A1) (Homo sapiens): 5.80

Form field pKi for item CC(=O)N1CCN(c2ccc(OCC3COC(Cn4ccnc4)(c4ccc(Cl)cc4Cl)O3)cc2)CC1 (stereo not shown) [Ketoconazole, reference compound] on human recombinant CYP1A1 (rCYP1A1) (Homo sapiens): 6.96

Form field pKi for item C=CC(=C)CCC=C(C)C [β-Myrcene] on human recombinant CYP1A1 (rCYP1A1) (Homo sapiens): 4.96

Form field pKi for item C[C@H]1CCCC(=O)CCC/C=C/c2cc(O)cc(O)c2C(=O)O1 [Zearalenone] on human recombinant CYP1A1 (rCYP1A1) (Homo sapiens): 6.18

Form field pKi for item CC(C)(c1ccc(O)cc1)c1ccc(O)cc1 [Bisphenol A] on human recombinant CYP1A1 (rCYP1A1) (Homo sapiens): 6.28

* * *

Here the recorded log10(IC50) is given for each entry.
- ASSAYED TARGET: human recombinant CYP1A1 (rCYP1A1) (Homo sapiens)
- ASSAY DETAILS: CYP1A1 activity assay: inhibition of CEC metabolism (IC50)
- MEASUREMENT CONDITIONS: IC50
Hey, these are logged values: log10 of IC50, µM being the unit before logging.

CC(C)(C#N)c1cc(Cn2cncn2)cc(C(C)(C)C#N)c1 [Anastrozole, reference compound]; 2.28
CCCCOC(=O)c1ccccc1C(=O)OCCCC [Dibutyl phthalate]; 1.00
CC(O)(CS(=O)(=O)c1ccc(F)cc1)C(=O)Nc1ccc(C#N)c(C(F)(F)F)c1 (centres unmarked) [Bicalutamide, reference compound]; 1.15
CCOC(=O)c1ccccc1C(=O)OCC [Diethyl phthalate]; 1.58
CC(=O)O[C@]1(C(C)=O)CC[C@H]2[C@@H]3C=C(Cl)C4=CC(=O)[C@@H]5C[C@@H]5[C@]4(C)[C@H]3CC[C@@]21C [Cyproterone acetate, reference compound]; 1.00
CC(C)(c1ccc(O)cc1)c1ccc(O)cc1; 0.38
CCCOC(=O)c1ccc(O)cc1; 1.59

The record that follows has no log10(IC50) shown yet.
The recorded log10(IC50) for CC(=O)[C@H]1CC[C@H]2[C@@H]3CCC4=CC(=O)CC[C@]4(C)[C@H]3CC[C@]12C [Progesterone, reference compound] is 1.61
